Examples of compounds with documented bioavailability follow.
test: Oral bioavailability (multiple species); details: in vivo, read-out: Oral % F (multiple species)

- COMPOUND: "CCn1c(-c2cc(N3CCN(C4CC4)CC3)cnc2[C@H](C)OC)c2c3cc(ccc31)-c1csc(n1)C[C@H](CC(=O)[C@H]1[C@@H]3COC[C@@H]31)C(=O)N1CCC[C@H](N1)C(=O)OCC(C)(C)C2 (atropisomer, axis not shown)"
  bioavailability: "60%"
- COMPOUND: "CCn1c(-c2cc(N3CCN(C)CC3)cnc2[C@H](C)OC)c2c3cc(ccc31)-c1csc(n1)C[C@H](NC(=O)[C@H](C(C)C)N(C)C(=O)N(C)C)C(=O)N1CCC[C@H](N1)C(=O)OCC(C)(C)C2 (atropisomer, axis not shown)"
  bioavailability: "20 to 38%"
- COMPOUND: "CCn1c(-c2cc(N3CCN(C)CC3)cnc2[C@H](C)OC)c2c3cc(ccc31)-c1csc(n1)C[C@H](NC(=O)[C@H]1C[C@@H]1C)C(=O)N1CCC[C@H](N1)C(=O)OCC(C)(C)C2 (atropisomer, axis not shown)"
  bioavailability: "24 to 33%"
